Reference source: patent US20240270821A1

Molecular target: T1, human GIP receptor (human) (UniProt P48546)
T1 sequence (looked up): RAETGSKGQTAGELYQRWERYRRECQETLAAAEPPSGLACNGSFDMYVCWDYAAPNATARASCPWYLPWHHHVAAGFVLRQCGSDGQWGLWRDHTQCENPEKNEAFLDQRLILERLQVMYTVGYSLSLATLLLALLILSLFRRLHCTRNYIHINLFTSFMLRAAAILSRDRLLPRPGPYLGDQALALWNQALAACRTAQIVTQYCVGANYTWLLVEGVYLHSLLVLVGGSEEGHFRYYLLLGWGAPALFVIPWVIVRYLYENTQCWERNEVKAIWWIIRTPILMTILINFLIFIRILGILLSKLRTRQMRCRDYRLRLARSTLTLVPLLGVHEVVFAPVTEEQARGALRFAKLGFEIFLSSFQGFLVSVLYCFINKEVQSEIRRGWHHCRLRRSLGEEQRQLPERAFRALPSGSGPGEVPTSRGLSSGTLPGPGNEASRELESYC
Test: cell-based or functional assay
Starred links: 1 amine or outer side, 2 acyl side, 3 side chain; linkers in the order of their positions; H or OH if unused. Non-standard residues stand in square brackets, D forms with d. Groups on a side chain read outwards from the residue. No end group written: not given here. *: point of attachment. C20 diacid = O=C(O)CCCCCCCCCCCCCCCCCCC(=O)*; γGlu = O=C(O)[C@H](CCC(=O)[*:2])N[*:1]; NMeY = CN[C@@H](Cc1ccc(O)cc1)C(=O)O; αMeF = C[C@](N)(Cc1ccccc1)C(=O)O; αMeL = CC(C)C[C@](C)(N)C(=O)O; Orn = NCCC[C@H](N)C(=O)O; AEEA = NCCOCCOCC(=O)O; Aib = CC(C)(N)C(=O)O
# Relative cAMP EC50 values compiled below

binder	Relative cAMP EC50, nM
[NMeY][Aib]QGT[αMeF]TSDYSILLDKIAAK([AEEA-AEEA-γGlu-C20 diacid])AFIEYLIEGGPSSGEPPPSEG-NH2 [Example 299]	0.137
YXQGTFTSDFSRXLDKKAQXAFIEYLLEGGPSSGAPPPGGS (Aib, αMeL; acylated Lys; C-terminal amide; synthetic construct; SITE 2: note = 2-Aminoisobutyric Acid; SITE 13: note = alpha-methyl-leucine; SITE 17: note = Lysine is chemically modified through conjugation of the epsilon-amino group of the Lysine side chain with (2-[2-(2-Amino-ethoxy)-ethoxy]-acetyl)-(gamma-Glu)-CO-(CH2) 18-CO2H; SITE 20: n) [Example 41]	0.258
YXQGTFTSDXXQXLDXKAQXQFIQXLLEXGPSSGAPPPSGGGE (not fully specified; non-natural residues (Aib, 4Pal, αMeS, Iva, αMeY); lipidated K; amide; synthetic construct; SITE 2: note = 2-Aminoisobutyric Acid; SITE 10: note = 3-(4-Pyridyl)-L-alanine; SITE 11: note = alpha-methyl-L-serine; SITE 13: note = alpha-methyl-leucine; SITE 16: note = L-ornithine; SITE 17: note = Lysine is chemically modified through conjugation of the epsilon-amino group) [Example 1139]	0.0431
YXQGTFTSDFSXXLDKKAQXAFIEWLLEGGSSSGAPPPGGT (synthetic construct; SITE 2: note = 2-Aminoisobutyric Acid; SITE 12: note = L-ornithine; SITE 13: note = alpha-methyl-leucine; SITE 17: note = Lysine is chemically modified through conjugation of the epsilon-amino group of the Lysine side chain with (2-[2-(2-Amino-ethoxy)-ethoxy]-acetyl)-(gamma-Glu)) [Example 272]	0.254
YXQGTXTSDYSIXLDXKAQXAFIEYLEEGGPSSGAPPPE (not fully specified; synthetic construct; SITE 2: note = 2-Aminoisobutyric Acid; SITE 6: note = alpha-methyl-L-phenylalanine; SITE 13: note = alpha-methyl-leucine; SITE 16: note = L-ornithine; SITE 17: note = Lysine is chemically modified through conjugation of the epsilon-amino group of the Lysine side chain with (2-[2)) [Example 397]	0.0247
YXQGTXTSDXXIXLDXKAQXEFIEXLIEGGPPSXXPPPSGSE (non-natural residues; lysine acylated AEEA-γGlu-C18 diacid; C-terminal amide; synthetic construct; SITE 2: note = 2-Aminoisobutyric Acid; SITE 6: note = alpha-methyl-2-fluoro-L-phenylalanine; SITE 10: note = 3-(4-Pyridyl)-L-alanine; SITE 11: note = alpha-methyl-L-serine; SITE 13: note = alpha-methyl-leucine; SITE 16: note = L-ornithine; SITE 17: note = Lysine is chemically mo) [Example 1198]	0.00663
YXQGTXTSDXXIXLDXKAQXEFIEXLVEGGPSSGAPPPSGSE (synthetic construct; SITE 2: note = 2-Aminoisobutyric Acid; SITE 6: note = alpha-methyl-2-fluoro-L-phenylalanine; SITE 10: note = 3-(4-Pyridyl)-L-alanine; SITE 11: note = alpha-methyl-L-serine; SITE 13: note = alpha-methyl-leucine; SITE 16: note = L-ornithine; SITE 17: note = Lysine is chemically mo) [Example 751]	0.00759
YXQGTFTSDFSKXLDKKAQXAFIEYLLEGGPSSGAPPPSGS (synthetic construct; SITE 2: note = 2-Aminoisobutyric Acid; SITE 13: note = alpha-methyl-leucine; SITE 17: note = Lysine is chemically modified through conjugation of the epsilon-amino group of the Lysine side chain with (2-[2-(2-Amino-ethoxy)-ethoxy]-acetyl)-(gamma-Glu)-CO-(CH2) 16-CO2H; SITE 20: n) [Example 141]	0.21
YXQGTXTSDXXIXLDXKAQXEFIEXLIEGGPSSGAPPPTGE (Aib, αMeF(2F), 4Pal, αMeS, αMeL, Orn, Me4Pal, αMeY, acyl, amide; synthetic construct; SITE 2: note = 2-Aminoisobutyric Acid; SITE 6: note = alpha-methyl-2-fluoro-L-phenylalanine; SITE 10: note = 3-(4-Pyridyl)-L-alanine; SITE 11: note = alpha-methyl-L-serine; SITE 13: note = alpha-methyl-leucine; SITE 16: note = L-ornithine; SITE 17: note = Lysine is chemically mo) [Example 1142]	0.00706
YXQGTFTSDXSQXLDXKAQXQFIQXLIAXGPSSGEPPPSGGGE (Aib, 4Pal, αMeL, Orn, Me4Pal, αMeY; acylated lysine; amide; synthetic construct; SITE 2: note = 2-Aminoisobutyric Acid; SITE 10: note = 3-(4-Pyridyl)-L-alanine; SITE 13: note = alpha-methyl-leucine; SITE 16: note = L-ornithine; SITE 17: note = Lysine is chemically modified through conjugation of the epsilon-amino group of the Lysine side chain with D-Glutami) [Example 1128]	0.0378
Y[Aib]QGTFTSDYSI[αMeL]LD[Orn]QAAK([AEEA-AEEA-γGlu-C20 diacid])QFVEWLLA[Aib]GPSSGEPPPSEG-NH2 [Example 328]	0.544
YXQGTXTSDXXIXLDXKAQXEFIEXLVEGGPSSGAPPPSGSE (non-natural residues; Lys acylated C18 diacid via γGlu2; C-term amide; synthetic construct; SITE 2: note = 2-Aminoisobutyric Acid; SITE 6: note = alpha-methyl-2-fluoro-L-phenylalanine; SITE 10: note = 3-(4-Pyridyl)-L-alanine; SITE 11: note = alpha-methyl-L-serine; SITE 13: note = alpha-methyl-leucine; SITE 16: note = L-ornithine; SITE 17: note = Lysine is chemically mo) [Example 1162]	0.00818
YXQGTXTSDXSILLDKKAQXAFIEYLEEGGPSSGAPPPSGEGE (non-natural residues, lysine acylation, C-terminal amide; synthetic construct; SITE 2: note = 2-Aminoisobutyric Acid; SITE 6: note = alpha-methyl-2-fluoro-L-phenylalanine; SITE 10: note = 3-(4-Pyridyl)-L-alanine; SITE 17: note = Lysine is chemically modified through conjugation of the epsilon-amino group of the Lysine side chain with (gamma-Glu)2-CO-(CH2)1) [Example 621]	0.0661
YXQGTXTSDXXIXLDXKAQXEFIEXLIEGGPSSGAPPPEGE (non-natural residues, AEEA-γGlu-diacid acylated Lys, C-terminal amide; synthetic construct; SITE 2: note = 2-Aminoisobutyric Acid; SITE 6: note = alpha-methyl-2-fluoro-L-phenylalanine; SITE 10: note = 3-(4-Pyridyl)-L-alanine; SITE 11: note = alpha-methyl-L-serine; SITE 13: note = alpha-methyl-leucine; SITE 16: note = L-ornithine; SITE 17: note = Lysine is chemically mo) [Example 1148]	0.00801
YXQGTFTSDFSXXLDKKAQXAFIEYLLEAGPSSGEPPPSGE (synthetic construct; SITE 2: note = 2-Aminoisobutyric Acid; SITE 12: note = L-ornithine; SITE 13: note = alpha-methyl-leucine; SITE 17: note = Lysine is chemically modified through conjugation of the epsilon-amino group of the Lysine side chain with (2-[2-(2-Amino-ethoxy)-ethoxy]-acetyl)2-(gamma-Glu)) [Example 117]	0.267
Y[Aib]QGTFTSDYSI[αMeL]LDKK([AEEA-γGlu-C20 diacid])AQRAFIEYLLEGGPSSGEPPPSG-NH2 [Example 313]	0.49
YXQGTXTSDXSIXLDKKAQXAFIEYLEEGGPSSGEPPPEGTGE (non-natural residues; lipidated Lys; C-terminal amide; synthetic construct; SITE 2: note = 2-Aminoisobutyric Acid; SITE 6: note = alpha-methyl-2-fluoro-L-phenylalanine; SITE 10: note = 3-(4-Pyridyl)-L-alanine; SITE 13: note = alpha-methyl-leucine; SITE 17: note = Lysine is chemically modified through conjugation of the epsilon-amino group of the Lysine) [Example 628]	0.0278
YXQGTFTSDXSQXLDKKAQXAFIEXLIEXGPSSGAPPPSGTGE (Aib, 4Pal, αMeL, Me4Pal; acylated Lys; C-terminal amide; synthetic construct; SITE 2: note = 2-Aminoisobutyric Acid; SITE 10: note = 3-(4-Pyridyl)-L-alanine; SITE 13: note = alpha-methyl-leucine; SITE 17: note = Lysine is chemically modified through conjugation of the epsilon-amino group of the Lysine side chain with (gamma-Glu)2-CO-(CH2)16-CO2H; SITE 20:) [Example 1119]	0.0939
